Data credit: ChEMBL document CHEMBL4699489

- tested on: Mu-type opioid receptor (Homo sapiens, UniProt P35372)
- Sequence (P35372 whole entry): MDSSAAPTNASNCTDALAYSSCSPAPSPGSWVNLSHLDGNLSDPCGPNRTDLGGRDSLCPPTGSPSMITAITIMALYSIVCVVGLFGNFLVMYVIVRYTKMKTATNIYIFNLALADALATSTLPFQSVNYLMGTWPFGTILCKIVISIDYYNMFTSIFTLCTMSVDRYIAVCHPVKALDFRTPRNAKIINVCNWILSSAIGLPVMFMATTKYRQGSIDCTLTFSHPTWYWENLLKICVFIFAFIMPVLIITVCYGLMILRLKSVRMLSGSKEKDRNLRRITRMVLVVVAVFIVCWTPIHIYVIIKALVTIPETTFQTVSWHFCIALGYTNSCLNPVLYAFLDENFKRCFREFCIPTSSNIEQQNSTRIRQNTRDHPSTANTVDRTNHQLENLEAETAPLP
- experiment: Agonist activity at human MOR expressed in human U2OS cells assessed as increase in beta arrestin2 recruitment incubated for 90 mins by pathhunter beta-arrestin assay relative to DAMGO
- Format: cell-based
- cond: filed as partial agonist
Square brackets hold non-standard residues; d marks the D form. Peptide text beside a SMILES is read from it. Dmt = Cc1cc(O)cc(C)c1C[C@H](N)C(=O)O; Tle = CC(C)(C)[C@H](N)C(=O)O
attribute measured: Emax

- compound: "Cc1cc(O)cc(C)c1C[C@H](N)C(=O)N[C@H](CCCCN)C(=O)N[C@@H](Cc1ccccc1)C(=O)N[C@@H](Cc1ccccc1)C(=O)N[C@@H](CCCCN)C(=O)N[C@@H](CCCCN)C(=O)N1CCC[C@H]1C(=O)N[C@@H](Cc1ccccc1)C(=O)N[C@H](C(=O)N[C@@H](CC(C)C)C(=O)O)C(C)(C)C (H-[Dmt][dK]FFKKPF[Tle]L-OH)"
  obs value: "69%"
